- Test system: PPARg:RXRa (NR concentration 180 nM, RXRa partner concentration 90 nM)
- assay: PBM binding z-score (relative to random genomic background probes); higher = stronger binding; sequences stand for … in GC…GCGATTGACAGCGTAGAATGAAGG
property: PBM binding z-score
Give the value as a plain number.

Prompt: // query PBM binding z-score value for entry GCTGCTAGATCAACTGATGGTCAGCTAAAGCTCG
Response: -0.337

Prompt: How about CCTGCTAGGTCAATGCTCAGCTAAAGCAGCTCGC ?
Response: 1.2

Prompt: How about CGCCAAAGTTCAACTAAGGTAACGTAAAGCACGC ?
Response: 4.03

Prompt: How about AGAAAGAGGGCACGCTGAGTTGATAGCAGAGTAG ?
Response: 1.83

Prompt: How about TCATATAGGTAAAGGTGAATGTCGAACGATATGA ?
Response: 4.24

Prompt: How about ACTTGTTGGTCAGCTGAGGTCACACACAATTCGG ?
Response: 1.8

New cases:
Prompt: // query PBM binding z-score value for entry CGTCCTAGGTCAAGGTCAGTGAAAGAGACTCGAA
Response: 4.31

Prompt: How about TCAGACAGGTGTAGGTAACTCAGGTACGCAGTCG ?
Response: 0.472

Prompt: How about AGAATGAGGTTATAGGTAGATCAGGGAAGAAAGT ?
Response: 4.23

Prompt: How about GATACAGGGTCAAGGCCAAAGTACGCGTATTGAT ?
Response: 6.18

Prompt: How about ATCTCTAGGTCAAGTTCAGTGAAAGATCGATAGA ?
Response: 5.82

Prompt: How about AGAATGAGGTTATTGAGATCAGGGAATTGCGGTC ?
Response: 1.67

Prompt: How about ATTGAAAGGTCGAAGGTGAGTATACCCACCCGAA ?
Response: 5.11

Prompt: How about AATACAGGGTCACTAGTCCAGAGTAGGTACGAAT ?
Response: 5.61

Prompt: How about GTACCAAGGTGAATAGGTCGTTGGTGAGTAGGCG ?
Response: 1.17

Prompt: How about ACTTACGGGTCAACGAGGTTATCGCACGCGTATA ?
Response: 5.87

Prompt: How about CGTCCAAGGTCAGAGAGGTCAGCGAATGCCGAGT ?
Response: 4

Prompt: How about TATACAGGGTCAAAGCCCAGAGTACGAATGTCGA ?
Response: 6.29

Prompt: How about GCAGACAGGTGAAACGCAGTTAACTCAGGGTGGC ?
Response: 0.486

Prompt: How about TCATATACGTAAAGGTGAAAGTCGAACGATATGA ?
Response: 1.64

Prompt: How about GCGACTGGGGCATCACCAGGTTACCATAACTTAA ?
Response: 1.1

Prompt: How about CGCCCAAGGTCAAGGTCAGTGAAAGAGACTCGAA ?
Response: 6.1

Prompt: How about TCTAGTTGGTCACGGAGGTCACGCACGACGGGTA ?
Response: 4.03

Prompt: How about CCTAGTTGCTCAGGAGGTCACACACCGGATATGA ?
Response: 1.96

Prompt: How about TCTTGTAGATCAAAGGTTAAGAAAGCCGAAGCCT ?
Response: 8.31

Prompt: How about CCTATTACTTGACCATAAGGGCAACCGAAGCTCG ?
Response: 0.8
